# assay_procedure: In vivo PK of ortho phosphate bearing 3-AP prodrugs, single intravenous dose, beagle dog
# assay_conditions: prodrug in dog serum; single i.v. dose 7.2-8.5 mg/kg

cpd_smiles	AUC of prodrug, µg·min/L
NC(=S)N/N=C/c1ncccc1NC(=O)OCc1cc(Cl)c(Cl)cc1OP(=O)(O)O	21499
Cc1cccc(COC(=O)Nc2cccnc2/C=N/NC(N)=S)c1OP(=O)(O)O	66756
NC(=S)N/N=C/c1ncccc1NC(=O)OCc1cc(C(F)(F)F)ccc1OP(=O)(O)O	9579
NC(=S)N/N=C/c1ncccc1NC(=O)OCc1cc([N+](=O)[O-])ccc1OP(=O)(O)O	3396
